Where do these numbers come from? They come from patent US20250188176A1.

Molecular target: canine IL-4RA (construct not given) (canine)
Test: SPR, combinatorial Fab-SASA clone
Mark yes for reported koff of 0.0001 s⁻¹ or greater; mark no for anything smaller.

Example results:
[[record]]
binder = "AHF21195 (Fab, V domains shown, not shown: small tags and cut ends) VH: EVQLVESGGDLVKPGGSLRLSCVASGFTFRDYAMTWVRQAPGKGLQWVSLINGSGGKTYYADAVKGRFTISRDNAKNTLYLQMNSLRAEDTAVYYCAVDRKTKTIRPQYYGLWVWGQGTLVTVSS VL: DIVMTQTPLSLSVSPGETASISCRSSQSLLYSIGYNYLDWYLQKPGQSPQGLIYLGSKRASGVPDRFSGSGSGTDFTLRISRVEANDTGVYYCMQGLQSPLSFGQGTKLEIKR"
assigned_class = "yes"

[[record]]
binder = "AHF21199 (Fab, V domains shown, not shown: small tags and cut ends) VH: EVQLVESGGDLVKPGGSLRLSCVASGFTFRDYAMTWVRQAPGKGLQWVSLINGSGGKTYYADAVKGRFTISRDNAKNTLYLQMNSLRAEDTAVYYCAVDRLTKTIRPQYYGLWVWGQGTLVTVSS VL: DIVMTQTPLSLSVSPGETASISCRSSQSLTYSIGYNYLDWYLQKPGQSPQGLIYLGHKRASGVPDRFSGSGSGTDFTLRISRVEANDTGVYYCMQGLQSPLGFGQGTKLEIKR"
assigned_class = "no"


Problem: // inclusive: koff at least 0.0001 s⁻¹? input: AHF21170 (Fab, V domains shown, not shown: small tags and cut ends) VH: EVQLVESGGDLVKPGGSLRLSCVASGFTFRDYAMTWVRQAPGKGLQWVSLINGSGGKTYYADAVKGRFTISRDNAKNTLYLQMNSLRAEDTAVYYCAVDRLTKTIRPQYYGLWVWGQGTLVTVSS VL: DIVMTQTPLSLSVSPGETASISCRSSQSLTYSIGYNYLDWYLQKPGQSPQGLIYLGSKRASGVPDRFSGSGSGTDFTLRISRVEANDTGVYYCMQGLQSPLTFGQGTKLEIKR
Solution: yes

Problem: // inclusive: koff at least 0.0001 s⁻¹? input: AHF21200 (Fab, V domains shown, not shown: small tags and cut ends) VH: EVQLVESGGDLVKPGGSLRLSCVASGFTFRDYAMTWVRQAPGKGLQWVSLINGSGGKTYYADAVKGRFTISRDNAKNTLYLQMNSLRAEDTAVYYCAVDRKTKTIRPQYYGLWVWGQGTLVTVSS VL: DIVMTQTPLSLSVSPGETASISCRSSQSLTYSIGYNYLDWYLQKPGQSPQGLIYLGSKRASGVPDRFSGSGSGTDFTLRISRVEANDTGVYYCMQPLQSPLSFGQGTKLEIKR
Solution: yes

Problem: // inclusive: koff at least 0.0001 s⁻¹? input: AHF21177 (Fab, V domains shown, not shown: small tags and cut ends) VH: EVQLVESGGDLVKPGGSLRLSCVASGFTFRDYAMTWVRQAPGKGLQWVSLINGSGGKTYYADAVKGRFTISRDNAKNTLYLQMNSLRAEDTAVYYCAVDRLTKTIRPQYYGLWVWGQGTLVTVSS VL: DIVMTQTPLSLSVSPGETASISCRSSQSLTYSIGYNYLDWYLQKPGQSPQGLIYLGSKRASGVPDRFSGSGSGTDFTLRISRVEANDTGVYYCMQGLQSPLGFGQGTKLEIKR
Solution: no

Problem: // inclusive: koff at least 0.0001 s⁻¹? input: AHF21172 (Fab, V domains shown, not shown: small tags and cut ends) VH: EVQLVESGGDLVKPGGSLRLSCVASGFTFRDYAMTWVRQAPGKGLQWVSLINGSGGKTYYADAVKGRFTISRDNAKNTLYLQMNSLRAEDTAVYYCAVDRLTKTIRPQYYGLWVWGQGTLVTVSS VL: DIVMTQTPLSLSVSPGETASISCRSSQSLLYSIGYNYLDWYLQKPGQSPQGLIYLGHKRASGVPDRFSGSGSGTDFTLRISRVEANDTGVYYCMQGLQSPLTFGQGTKLEIKR
Solution: yes

Problem: // inclusive: koff at least 0.0001 s⁻¹? input: AHF21190 (Fab, V domains shown, not shown: small tags and cut ends) VH: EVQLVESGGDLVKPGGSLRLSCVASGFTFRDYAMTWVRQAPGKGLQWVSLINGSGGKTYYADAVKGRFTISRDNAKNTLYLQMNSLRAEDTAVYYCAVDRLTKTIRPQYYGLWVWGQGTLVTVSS VL: DIVMTQTPLSLSVSPGETASISCRSSQSLLYSIGYNYLDWYLQKPGQSPQGLIYLGHKRASGVPDRFSGSGSGTDFTLRISRVEANDTGVYYCMQGLQSPLSFGQGTKLEIKR
Solution: yes
